As shown below, each of these compounds has a reported activity at 2000 µg/mL value.
Test Target: (Rhodococcus erythropolis, UniProt P13448+P13449)
Sequence (P13448 2-207 limits assumed): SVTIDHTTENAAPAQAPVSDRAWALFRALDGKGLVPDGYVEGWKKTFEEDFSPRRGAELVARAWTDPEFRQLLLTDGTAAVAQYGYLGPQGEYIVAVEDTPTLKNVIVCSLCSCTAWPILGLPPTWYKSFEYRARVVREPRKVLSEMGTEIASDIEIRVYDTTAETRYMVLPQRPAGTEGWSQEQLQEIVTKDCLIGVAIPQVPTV
Sequence (P13449 whole entry): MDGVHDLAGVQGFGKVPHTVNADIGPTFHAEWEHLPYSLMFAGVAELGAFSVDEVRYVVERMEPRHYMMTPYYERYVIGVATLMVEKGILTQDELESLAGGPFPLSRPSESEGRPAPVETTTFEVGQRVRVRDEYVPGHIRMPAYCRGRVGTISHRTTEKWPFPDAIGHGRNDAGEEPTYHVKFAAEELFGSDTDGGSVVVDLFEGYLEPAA
Assay Details: Preservation of nitrile hydration activity of cell extract prepared as in Comparison Example 1, stabilizer added to extract
Assay type: biochemical, Corynebacterium strain N-774(FERM P-4446)
Cond: 48 h, pH 6.5; read-out: % Residual Activity (Nitrile Added)
Assay Readout: activity at 2000 µg/mL (%)

> print(dat)
                           compound  reported
 1                        C=C(C)C#N        62
 2                            N#CCN        58
 3                         CCCCCC#N        71
 4                           C=CC#N        56
 5                           N#CCCl        58
 6      N#CCC(N)=O [Cyanoacetamide]        53
 7                         CC(C)C#N        88
 8                           CCCC#N        93
 9                          N#CCCCl        63
10  N#CCCO [β-Hydroxypropionitrile]        78

These measurements were taken from patent US4931391A.
